B1: library; numbered along this chain (parent)
chain: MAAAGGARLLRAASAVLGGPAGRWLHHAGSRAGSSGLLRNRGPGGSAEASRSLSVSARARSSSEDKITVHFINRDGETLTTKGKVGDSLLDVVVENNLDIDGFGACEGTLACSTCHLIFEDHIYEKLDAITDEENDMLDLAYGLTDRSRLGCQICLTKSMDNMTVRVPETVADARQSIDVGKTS

Variants of: B1
Experiment: scaled log2 fold change in cell abundance, elesclomol vs control (0 = silent mean, 1 = nonsense mean) (scaled log2 ratio); higher = higher viability under elesclomol (loss of FDX1 cuproptosis function);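 also: variant abundance is its share of total variant reads in each endpoint sample, from next-generation sequencing of the integrated ORF PCR-amplified out of genomic DNA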
Settings: with ABC1 FDX1 KO; elesclomol 5 nM; glucose 10 mM; 14 days
Endpoint label: scaled log2 fold change

Worked examples, 10 variants total:
- V92H: 0.295
- G76A: -0.303
- T145G: 0.132
- L9G: 0.0757
- A15E: 0.311
- R74E: -0.261
- H70N: 0.0583
- D146F: -0.0311
- L144A: 0.157
- E48T: 0.74

List reported scaled log2 fold change for each of these variants:
1. C106K
2. G143K
3. D179L
4. T81K
5. V85R

1.09
-1.13
0.0184
0.0566
0.266

Dear colleague, could you please provide scaled log2 fold change for the variants listed below?
1. T131K
2. A21Q
3. I130C
4. L156M
5. L37V
6. R8I
7. E125D

[-0.138, -0.931, -0.188, -0.318, 0.412, 0.286, 0.426]
